target: UniProtKB P29275; assay: Adenosine receptor activity assay (Table 1), A2B activity; type: biochemical; settings: A2A activity to the A2B activity; A2A/A2B
Criterion: Ratio strictly under 2. Met: 1 (yes). Not met: 0 (no).

compound=Cc1cc2nc(N[C@@H](C)c3cncc(F)c3)nc(C(=O)NCCC3CN(C(=O)C(F)(F)F)C3)c2s1 category="1 (yes)"
compound="Cc1cc2nc(N[C@@H](C)c3cncc(F)c3)nc(C(=O)N3CC(NC(=O)C4CCCO4)C3)c2s1 (stereo partly shown)" category="1 (yes)"
compound=CC(=O)NC1CN(C(=O)c2nc(N[C@@H](C)c3cncc(F)c3)nc3cc(C)sc23)C1 category="0 (no)"
compound=Cc1csc2c(C(=O)N3CCCC3)nc(N[C@@H](C)c3ccccn3)nc12 category="0 (no)"
compound=C[C@H](Nc1nc(C(=O)NCCc2ccc(C(=O)O)cc2)c2sccc2n1)c1cncc(F)c1 category="0 (no)"
compound=C[C@H](Nc1nc(C(=O)N2CC(NC(=O)NC(C)(C)C)C2)c2sccc2n1)c1cncc(F)c1 category="1 (yes)"
compound=Cc1cc2nc(N[C@@H](C)c3ccccn3)nc(C(N)=O)c2s1 category="0 (no)"
compound=Cc1cc2nc(N[C@@H](C)c3cncc(F)c3)nc(C(=O)N3CC[C@@H](N)C3)c2s1 category="0 (no)"
compound=COCC1CN(C(=O)c2nc(N[C@@H](C)c3ccccn3)nc3c(C)csc23)C1 category="0 (no)"
compound=COc1cccc(C(=O)NC2CN(C(=O)c3nc(N[C@@H](C)c4cncc(F)c4)nc4ccsc34)C2)c1 category="0 (no)"
compound=C[C@H](Nc1nc(C(=O)N2CC(C(=O)OC(C)(C)C)C2)c2sccc2n1)c1cncc(F)c1 category="0 (no)"
compound=CO[C@@H](C)CNC(=O)c1nc(N[C@@H](C)c2cccnc2)nc2cc(C)sc12 category="0 (no)"
compound=C[C@H](Nc1nc(C(=O)N2CC(CC(=O)NC(C)(C)C)C2)c2sccc2n1)c1cncc(F)c1 category="1 (yes)"
compound=Cc1cc2nc(N[C@@H](C)c3cncc(F)c3)nc(C(=O)N3CC[C@H]3C)c2s1 category="0 (no)"
compound=Cc1cc2nc(N[C@@H](C)c3cncc(F)c3)nc(C(=O)N3CC(NC(=O)c4ccc(C(F)(F)F)o4)C3)c2s1 category="1 (yes)"
compound=COc1ccc(CCCNC(=O)c2nc(N[C@@H](C)c3cncc(F)c3)nc3ccsc23)cc1 category="0 (no)"

###

In this section we review reported pIC50 values for a set of molecules.
biological target: adenosine A2A receptor (Homo sapiens (Human)); assay: Adenosine receptor activity assay (Table 1), A2A activity; assay type: biochemical; details: read-out: Ave A2A cAMP IC50
Sequence (P29274 whole entry): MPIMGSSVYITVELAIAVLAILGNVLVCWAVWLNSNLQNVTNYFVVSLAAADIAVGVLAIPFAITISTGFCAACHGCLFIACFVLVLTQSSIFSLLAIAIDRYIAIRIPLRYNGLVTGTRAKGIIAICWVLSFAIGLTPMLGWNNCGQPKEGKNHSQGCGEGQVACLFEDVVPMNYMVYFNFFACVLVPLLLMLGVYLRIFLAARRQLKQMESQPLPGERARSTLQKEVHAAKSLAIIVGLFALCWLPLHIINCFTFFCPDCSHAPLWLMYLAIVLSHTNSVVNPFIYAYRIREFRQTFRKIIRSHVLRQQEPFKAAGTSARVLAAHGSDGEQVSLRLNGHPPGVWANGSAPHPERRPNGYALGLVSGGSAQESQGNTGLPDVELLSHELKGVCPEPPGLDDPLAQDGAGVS
pIC50: −log10 of the molar value.
Measured attribute: pIC50

molecule="C[C@H](Nc1nc(C(=O)N2CCCC2)c2sccc2n1)c1cccc(F)c1 [Example Z125]" recorded_measurement="6.30 to 7.00"
molecule="Cc1cc2nc(N[C@@H](C)c3cncc(F)c3)nc(C(=O)NCC[C@@H]3CCNC3)c2s1 [Example Z489]" recorded_measurement="< 6.30"
molecule="Cc1cc2nc(N[C@@H](C)c3ccccn3)nc(C(=O)NC3CCC3)c2s1 [Example Z352]" recorded_measurement="7.30 to 8.00"
molecule="Cc1cc2nc(N[C@@H](C)c3cncc(F)c3)nc(C(=O)N3CC(NC(=O)[C@@H]4CCOC4)C3)c2s1 [Example Z598]" recorded_measurement="7.30 to 8.00"

###

biological target: adenosine A2B receptor (Homo sapiens (Human), UniProt P29275); test: Adenosine receptor activity assay (Table 1), A2B activity; assay type: biochemical; conditions: read-out: Ave A2B cAMP IC50
Sequence (P29275 whole entry): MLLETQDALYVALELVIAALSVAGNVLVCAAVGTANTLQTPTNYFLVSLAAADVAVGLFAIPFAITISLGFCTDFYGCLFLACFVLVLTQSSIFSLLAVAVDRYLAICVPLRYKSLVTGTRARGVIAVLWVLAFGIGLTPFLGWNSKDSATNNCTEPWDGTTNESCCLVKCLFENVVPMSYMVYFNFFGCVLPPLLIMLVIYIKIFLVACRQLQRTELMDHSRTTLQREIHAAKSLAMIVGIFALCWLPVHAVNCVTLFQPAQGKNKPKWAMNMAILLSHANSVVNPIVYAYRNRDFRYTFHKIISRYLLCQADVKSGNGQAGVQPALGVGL
In this section we review reported IC50 values for a set of compounds.
Measured attribute: IC50

structure_smiles=Cc1cc2nc(N[C@@H](C)c3cccnc3)nc(C(=O)N3CCCC3)c2s1 recorded_measurement="< 10 nM"
structure_smiles=Cc1cc2nc(N[C@@H](C)c3cncc(F)c3)nc(C(=O)NCCc3ccc(O)cc3)c2s1 recorded_measurement="< 10 nM"
structure_smiles=O=C(NC[C@H]1CCCN1)c1nc(NCc2cncc(F)c2)nc2ccsc12 recorded_measurement="> 500 nM"
structure_smiles=C[C@H](Nc1nc(C(=O)N2CC(O)C2)c2sccc2n1)c1cncc(F)c1 recorded_measurement="< 10 nM"

###

molecular target: adenosine A2B receptor (Homo sapiens (Human), UniProt P29275); assay: Adenosine receptor activity assay (Table 1), A2B activity; format: biochemical; details: read-out: Ave A2B cAMP IC50
In this section we review reported IC50 values for a set of molecules.
Measured attribute: IC50

molecule=Cc1cc2nc(N[C@@H](C)c3cncc(F)c3)nc(C(=O)NCC3CCOCC3)c2s1 measured_attribute=IC50 recorded_measurement="< 0.01 µM"
molecule="COCC(Nc1nc(C(=O)N2CCC2)c2sccc2n1)c1cccnc1 (centres unmarked)" measured_attribute=IC50 recorded_measurement="0.01 to 0.05 µM"
molecule=C[C@H](Nc1nc(C(=O)N2CCN(C(=O)OCC(C)(C)C)C2)c2sccc2n1)c1cncc(F)c1 measured_attribute=IC50 recorded_measurement="> 0.5 µM"
molecule=C[C@H](Nc1nc(C(=O)N2CCC2)c2sccc2n1)c1cccc(F)c1 measured_attribute=IC50 recorded_measurement="< 0.01 µM"
molecule=C[C@H](Nc1nc(C(=O)N2CC[C@H](O)C2)c2sccc2n1)c1cccnc1 measured_attribute=IC50 recorded_measurement="0.05 to 0.1 µM"
molecule=CNC1CN(C(=O)c2nc(NCc3cncc(F)c3)nc3ccsc23)C1 measured_attribute=IC50 recorded_measurement="0.1 to 0.5 µM"
molecule=C[C@H](Nc1nc(C(=O)NCCC2CN(C(=O)OC(C)(C)C)C2)c2sccc2n1)c1ccccn1 measured_attribute=IC50 recorded_measurement="0.05 to 0.1 µM"
molecule="COCC(Nc1nc(C(=O)N2CC(OC)C2)c2sccc2n1)c1cccnc1 (centres unmarked)" measured_attribute=IC50 recorded_measurement="0.01 to 0.05 µM"
molecule=C[C@H](Nc1nc(C(=O)NCCc2ccc(CO)cc2)c2sccc2n1)c1cncc(F)c1 measured_attribute=IC50 recorded_measurement="0.01 to 0.05 µM"
molecule=COc1ccc(CNC(=O)c2nc(NCc3cccc(F)c3)nc3ccsc23)cn1 measured_attribute=IC50 recorded_measurement="0.05 to 0.1 µM"
molecule=Nc1cc2nc(NCc3cccnc3)nc(C(=O)N3CCCC3)c2s1 measured_attribute=IC50 recorded_measurement="0.05 to 0.1 µM"
molecule=C[C@H](Nc1nc(C(=O)N2CCC2)c2sc(N)cc2n1)c1cccnc1 measured_attribute=IC50 recorded_measurement="0.01 to 0.05 µM"
molecule=C[C@H](NC(=O)c1nc(N[C@@H](C)c2ccncc2)nc2ccsc12)c1ccncc1 measured_attribute=IC50 recorded_measurement="0.1 to 0.5 µM"
molecule=C[C@H]1CCN(C(=O)c2nc(N[C@@H](C)c3ccccn3)nc3ccsc23)C1 measured_attribute=IC50 recorded_measurement="0.01 to 0.05 µM"
molecule=C[C@H](Nc1nc(C(=O)N2CCC2)c2sc(N)cc2n1)c1ccccn1 measured_attribute=IC50 recorded_measurement="< 0.01 µM"
molecule=C[C@H](Nc1nc(C(=O)N[C@@H](C)CO)c2sccc2n1)c1ccccn1 measured_attribute=IC50 recorded_measurement="0.05 to 0.1 µM"
molecule=C[C@H](Nc1nc(C(=O)NCC2CCN(Cc3ccccc3)CC2)c2sccc2n1)c1cccnc1 measured_attribute=IC50 recorded_measurement="0.05 to 0.1 µM"

Values were extracted from patent US11254686B1.
